src = patent US20260325617A1

Experiment: Mouse pharmacokinetics of IMM60 after i.v. liposomal or soluble IMM60 (Example 7)
Format: in vivo, mouse (C57BL/6 and CD1)
Conditions: mouse, plasma, iv, 0.0015 mg, individual mouse, CD1, 1500 ng i.v.
reported_property: AUC(0-inf) (ng·h/mL)
Numbers only here, please. The scale is ng·h/mL.

Fill blank: measured AUC(0-inf) of the molecule CCCCCCCCCCCCCCCCCCCCCCCCCC(=O)N[C@@H](CO[C@H]1CC[C@H](O)[C@H](O)[C@H]1O)[C@H](O)[C@H](O)CCCCCCCCCCCCCC [soluble IMM60] is ____.
239

###

Assay: Mouse pharmacokinetics of IMM60 after i.v. liposomal or soluble IMM60 (Example 7)
Assay type: in vivo, mouse (C57BL/6 and CD1)
Conditions: mouse, plasma, iv, 0.001 mg, individual mouse, C57BL/6, 1000 ng i.v., 10 min
reported_property: Cmax at 10 min (ng/mL)
Write the value in ng/mL as a bare number.

// returns reported Cmax at 10 min for input "CCCCCCCCCCCCCCCCCCCCCCCCCC(=O)N[C@@H](CO[C@H]1CC[C@H](O)[C@H](O)[C@H]1O)[C@H](O)[C@H](O)CCCCCCCCCCCCCC"
91.7
